# Procedure text: Biodistribution in BxPC3-luc tumor-bearing mice
# Type: in vivo, BALB/c nu/nu mice
# Condition: female, BALB/c nu/nu, mouse, liver, iv, 74 kBq, total radioactivity; 1 h post-injection, i.v.; read-out: Biodistribution, Liver
Where a SMILES comes first, the peptide text is derived from it. The star is where a group is joined. DOTA = O=C(O)CN1CCN(CC(=O)O)CCN(CC(=O)*)CCN(CC(=O)O)CC1; AEEA = NCCOCCOCC(=O)O
Measurement label: tissue uptake at 1 h

>>> value("CC[C@H](C)[C@H](NC(=O)COCCOCCNC(=O)CN1CCN(CC(=O)O)CCN(CC(=O)O)CCN(CC(=O)O)CC1)C(=O)N1CCC[C@H]1C(=O)N[C@@H](CC(C)C)C(=O)N1CCC[C@H]1C(=O)N1CCC[C@H]1C(=O)N1CCC[C@H]1C(=O)N[C@@H](CCCNC(=N)N)C(=O)N[C@@H](CCCNC(=N)N)C(=O)N1CCC[C@H]1C(=O)N[C@@H](Cc1ccccc1)C(=O)N[C@@H](Cc1ccccc1)C(=O)N[C@@H](CCCCN)C(=O)O [[^67Ga]27, [^67Ga]Ga-DOTA-EG2-IPLPPPRRPFFK, metal not drawn] ({DOTA-AEEA}-IPLPPPRRPFFK-OH)")
"0.22 %ID/g"
